Just for reference, paper PMC10397247 is where these values come from.

# study.target: T1, 4H1373-bN
# T1 chain: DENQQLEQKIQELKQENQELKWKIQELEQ
# protocol.notes: two-hybrid library CCNG1;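 further: natural log of median RNA to DNA barcode read ratio; higher means stronger binding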
Recorded measurements of interaction score, one per entry
Would you mind answering with just the numeric figure?

The following binders have reported results that may help.
- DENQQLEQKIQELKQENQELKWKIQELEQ [4H1373-bN]: -0.169
- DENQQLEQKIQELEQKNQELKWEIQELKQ [4H1338-bN]: -1.16
- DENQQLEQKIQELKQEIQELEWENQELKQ [4H1348-bN]: -0.955
- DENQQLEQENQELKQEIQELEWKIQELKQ [4H1222-bN]: -0.0597

We now examine a further binder.
-- ask I have this binder here, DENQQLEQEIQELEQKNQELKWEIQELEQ [4H1081-bN] , and I need its recorded interaction score.
-- reply -1.6
